studyTarget: PGR-2 (Mus musculus)
Construct: GST (N); made in house; host or cells: E. coli
Sequence (Q8VDQ1 whole entry): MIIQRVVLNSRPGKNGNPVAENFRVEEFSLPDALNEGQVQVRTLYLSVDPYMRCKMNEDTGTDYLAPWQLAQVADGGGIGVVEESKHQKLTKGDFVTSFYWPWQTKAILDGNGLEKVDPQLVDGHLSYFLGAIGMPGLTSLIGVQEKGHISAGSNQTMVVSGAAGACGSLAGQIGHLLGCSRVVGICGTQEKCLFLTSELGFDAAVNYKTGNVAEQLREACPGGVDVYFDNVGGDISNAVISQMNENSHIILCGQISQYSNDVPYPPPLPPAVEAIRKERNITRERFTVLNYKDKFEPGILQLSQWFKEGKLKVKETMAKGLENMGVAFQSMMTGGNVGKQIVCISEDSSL
experimentNotes: PGR-2 enzymatic activity: substrate specificity and kinetics
Assay type: biochemical
conditionContext: 15-keto PGE2 replaced with the substrate; 0.5 mM NADPH; 2 hours at 37° C.
observedProperty: specific activity with PGR-2 (substrate specificity)

{"compound": "CCCCCC(=O)/C=C/[C@@H]1[C@@H](C/C=C\\CCCC(=O)O)[C@@H](O)C[C@H]1O [15-keto PGF2α, 15-keto prostaglandin F2α]", "result": "reacted specifically"}
{"compound": "CCCCCC(=O)/C=C/[C@H]1[C@H](O)CC(=O)[C@@H]1CCCCCCC(=O)O [15-keto PGE1, 15-keto prostaglandin E1]", "result": "reacted specifically"}
{"compound": "CCCCCC(=O)/C=C/[C@@H]1[C@@H](CCCCCCC(=O)O)[C@@H](O)C[C@H]1O [15-keto PGF1α, 15-keto prostaglandin F1α]", "result": "reacted specifically"}
